- procedureText: Pharmacokinetic profile in CD-1 mice
- Type: in vivo
- measurementSetup: plasma, po; CD-1 mouse, p.o. 10 mg/kg
experimentalEndpoint: Cmax (µg/mL)
Could you give me the number in µg/mL? Just the number is fine.

[Q] Report Cmax for O=C1CCC(N2C(=O)c3cccc(OCC(=O)N4CCN(c5ccc(N(C(=O)NCc6ccccc6)C6CCC(Nc7ncc8ccccc8n7)CC6)cc5)CC4)c3C2=O)C(=O)N1 (stereo not shown) please.
[A] 0.055

---

- Test system: BPH-1
- procedureText: Cell viability assay (CellTiter-Glo, 5 days)
- Type: cell-based
- measurementSetup: Homo sapiens, 120 h; BPH-1, 5 days of treatment, Figure 1F
experimentalEndpoint: IC50 (µM)
Supply the numeric figure in µM, leaving out any unit text.

[Q] Fill in the blank: the reported IC50 of CN(C)C/C=C/C(=O)Nc1ccc(C(=O)N2CCC[C@@H](Nc3ncc(Cl)c(-c4c[nH]c5ccccc45)n3)C2)cc1 [THZ531, reference compound] is ____.
[A] 0.356

Numbers sourced from paper PMC11513842.
